- protocol: chemical genetic growth profiling, strain panel (AID 1159580);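 also: tested at 20 µM; growth read once vehicle control cultures reached saturation at 30 °C; 1 = growth at the plate median or of vehicle wells; lower values mean less growth of the strain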
- assayConditions: S. cerevisiae deletion strains, growth OD, locus YMR223W, strain ubp8, hits give low values
Screen size: about 5,500 compounds; about 2,000 (36%) were called active. About 18% were inconclusive and are not listed. This is one part of the list.
observedProperty: normalized growth
Keep it simple and answer with nothing but the number.

// solved cases for normalized growth follow
>>> measured("CO[C@@H]1[C@@H](OC(N)=O)[C@@H](O)[C@H](Oc2ccc3c(O)c(NC(=O)c4ccc(O)c(CC=C(C)C)c4)c(=O)oc3c2C)OC1(C)C")
1.03
>>> measured("CC(=O)O[C@@H]1c2c(ccc3ccc(=O)oc23)OC(C)(C)[C@@H]1OC(=O)CC(C)C")
0.986
>>> measured("C[C@H]1OC(O[C@H]2[C@@H](O)CC(O[C@H]3[C@@H](O)C[C@H](O[C@H]4CC[C@]5(C)C6CC[C@]7(C)[C@@H](C8=CC(=O)OC8)[C@@H](O)C[C@]7(O)[C@@H]6CC[C@@H]5C4)O[C@@H]3C)O[C@@H]2C)C[C@H](O)C1O (stereo not given in full)")
1.01
>>> measured("CO[C@H]1[C@H](O)[C@@H](O[C@H]2CC[C@]3(C=O)C4CC[C@]5(C)[C@@H](C6=CC(=O)OC6)CC[C@]5(O)C4CC[C@@H]3C2)O[C@@H](C)[C@@H]1O (stereo not given in full)")
0.977
>>> measured("CSCCC(N)C(=O)NC(CC(C)C)C(=O)NC(Cc1ccccc1)C(=O)O (stereo not given)")
0.995
>>> measured("Cc1cc(N)c2ccccc2[n+]1CCCCCCCCCC[n+]1c(C)cc(N)c2ccccc21")
0.0681
>>> measured("C/C=C(\\C)C(=O)O[C@@H]1c2c(ccc3ccc(=O)oc23)OC(C)(C)[C@@H]1OC(C)=O")
0.979
>>> measured("Cc1c(OCC(F)(F)F)ccnc1CS(=O)c1nc2ccccc2[nH]1 (stereo not given)")
0.981

Req: Report normalized growth for C/C=C(/C)C(=O)O[C@@H]1Cc2c(ccc3ccc(=O)oc23)OC1(C)C please.
Resp: 0.974

Req: Same for C[C@@H]1CCC2[C@](C)(CO)[C@@H](O)CC[C@]2(C)[C@@]12CC[C@@](CO)(CCO)O2 (stereo not given in full)
Resp: 1

---

- protocol: chemical genetic growth profiling, strain panel (AID 1159580)
- assayConditions: S. cerevisiae deletion strains, growth OD, locus YJL164C, strain tpk1, hits give low values
Out of some 5,500 compounds screened, about 2,000 (36%) were called active. Roughly 18% stayed inconclusive and do not appear here. The list shows a part of the results.
observedProperty: normalized growth
Reply with just the number.

>>> measured("C[C@H]1[C@H](C)CC[C@]2(C(=O)O)CC[C@]3(C)C(=CCC4[C@@]5(C)C[C@@H](O)[C@H](O)[C@@](C)(CO)C5CC[C@]43C)[C@H]12 (stereo not given in full)")
0.993
>>> measured("COc1ccccc1N1CCN(CCCNc2cc(=O)n(C)c(=O)n2C)CC1")
1.01

Req: What does the data say about its normalized growth? Entry: COP(N)(=O)SC (stereo not given)
Resp: 1

Req: Can you handle CC1(C)[C@@H]2CC[C@@]1(C)C(=O)C2 next?
Resp: 0.98

Req: Please give the result for CC(C)c1cccc(C(C)C)c1O too.
Resp: 0.979

---

Measured normalized growth values are reported for all entries that follow.
- protocol: chemical genetic growth profiling, strain panel (AID 1159580)
- assayConditions: S. cerevisiae deletion strains, growth OD, locus YOR080W, strain dia2, hits give low values
Screen size: about 5,500 compounds; about 2,000 (36%) were called active. About 18% were inconclusive and are not listed. The list shows a part of the results.
Reply: number alone, nothing else.

Please review the following examples before continuing.
>>> measured("O=C(O)C1=CC(=C(c2ccc(O)c(C(=O)O)c2)c2ccc(O)c(C(=O)O)c2)C=CC1=O")
0.988
>>> measured("CC1(C)S[C@@H]2[C@H](NC(=O)C(C(=O)O)c3ccccc3)C(=O)N2[C@H]1C(=O)O (some centres not stated)")
0.972
>>> measured("CC12CCC(=O)C=C1CCc1ccccc12 (configuration not stated)")
0.974

Req: Quick one: normalized growth of COC(=O)CC1C(C)(C)C(OC(C)=O)[C@@H]2[C@@H](OC(C)=O)[C@]34O[C@@]2(O)[C@]1(C)C3CC[C@]1(C)C4=CC(=O)O[C@H]1c1ccoc1 (some centres not stated) ?
Resp: 1

Req: And CN[C@H]1CC[C@@H](c2ccc(Cl)c(Cl)c2)c2ccccc21 ?
Resp: 0.982

Req: Also need CN(C)C(=O)C(CCN1CCC(O)(c2ccc(Cl)cc2)CC1)(c1ccccc1)c1ccccc1 , thanks.
Resp: 0.981

Req: Next record, please: COC1=CC(C)[C@@H]2C[C@H]3OC(=O)C[C@H]4C(C)=C(OC)C(=O)C([C@@]34C)[C@@]2(C)C1=O (some centres not stated)
Resp: 0.977

---

- protocol: chemical genetic growth profiling, strain panel (AID 1159580);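 also: tested at 20 µM; growth read once vehicle control cultures reached saturation at 30 °C; 1 = growth at the plate median or of vehicle wells; lower values mean less growth of the strain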
- assayConditions: S. cerevisiae deletion strains, growth OD, locus YER015W, strain faa2, hits give low values
Hit rate of the full screen: of about 5,500 compounds, about 2,000 (36%) were called active. Not shown: some 18% with an inconclusive outcome. Some of the results follow.
observedProperty: normalized growth
Answer field: number only, no words.

Examples from the recorded data:
>>> measured("NC(=O)c1ccc([N+](=O)[O-])cc1Cl")
0.988
>>> measured("COC1CC(OC2CCC3(C)C(CCC4C3CCC3(C)C(C5=CC(=O)OC5)C(OC(C)=O)CC43O)C2)OC(C)C1O (stereo not drawn)")
1.02
>>> measured("CC(=O)O[C@@H]1c2c(ccc3ccc(=O)oc23)OC(C)(C)[C@@H]1OC(=O)CC(C)C")
1.01
>>> measured("CC[C@@]1(O)C(=O)OCc2c1cc1n(c2=O)Cc2cc3cc(O)ccc3nc2-1")
0.993
>>> measured("CCCCCC(O)C1C(=O)OC(C)C(O)/C=C/C=C/C=C/C=C/C=C(\\C)C(O)CC(O)CC(O)CC(O)CC(O)CC(O)CC1O (stereo not drawn)")
0.991

Req: Can you look up the measured normalized growth of CC(C)C[C@@H](NC(=O)OCC1c2ccccc2-c2ccccc21)C(=O)O for me?
Resp: 0.997

Req: Next molecule: CO[C@H]1[C@@H](O)[C@@H](C)O[C@H](O[C@H]2CCC3(C)C4CCC5(C)[C@@H](C6=CC(=O)OC6)CC[C@]5(O)[C@@H]4CC[C@]3(O)C2)[C@@H]1O (stereo partly drawn)
Resp: 1.02

Req: Would you mind doing C[C@H]1O[C@@H](O[C@H]2[C@@H](O)C[C@H](O[C@H]3[C@@H](O)C[C@H](O[C@H]4CC[C@]5(C)C6CC[C@]7(C)[C@@H](C8=CC(=O)OC8)CC[C@]7(O)C6CC[C@@H]5C4)O[C@@H]3C)O[C@@H]2C)C[C@H](O)[C@@H]1O (stereo partly drawn) as well?
Resp: 0.977

---

- protocol: chemical genetic growth profiling, strain panel (AID 1159580);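 also: tested at 20 µM; growth read once vehicle control cultures reached saturation at 30 °C; 1 = growth at the plate median or of vehicle wells; lower values mean less growth of the strain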
- assayConditions: S. cerevisiae deletion strains, growth OD, locus YLR039C, strain RIC1, hits give low values
In all, about 5,500 compounds went through this assay and about 2,000 (36%) were called active. Roughly 18% stayed inconclusive and do not appear here. Some of the results follow.
Label key: Y means normalized growth under 1; N means normalized growth of 1 or more.

>>> discretelabel("Cc1ccc(OS(=O)(=O)c2ccc(Cl)cc2)c([N+](=O)[O-])n1")
"Y"

Req: Does the reported normalized growth of CC1Cc2ccccc2N1NC(=O)c1ccc(Cl)c(S(N)(=O)=O)c1 (stereo not given) stay below 1?
Resp: N

Req: Similarly, C/C=C(/C)C(=O)O[C@@H]1Cc2c(ccc3ccc(=O)oc23)OC1(C)C ?
Resp: Y

---

Below: a set of entries, each annotated with reported normalized growth.
- protocol: chemical genetic growth profiling, strain panel (AID 1159580);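 also: tested at 20 µM; growth read once vehicle control cultures reached saturation at 30 °C; 1 = growth at the plate median or of vehicle wells; lower values mean less growth of the strain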
- assayConditions: S. cerevisiae deletion strains, growth OD, locus YDR502C, strain sam2, hits give low values
About 2,000 (36%) of roughly 5,500 compounds were called active. Another 18% or so got no clear call; they are omitted. The list shows a part of the results.
// keep it numeric: no unit symbol after the value

Solved cases below.
>>> measured("COc1cc(C)c2c(=O)c3c(O)cc(OC)cc3oc2c1")
0.982
>>> measured("COC1=CC(=O)C=C(OC)C1=O")
0.988
>>> measured("NC[C@H]1O[C@H](OC2[C@@H](N)C[C@@H](N)[C@H](O[C@H]3O[C@H](CO)[C@@H](O)[C@H](N)[C@H]3O)[C@H]2O)[C@H](O)[C@@H](O)[C@@H]1O (stereo partly drawn)")
1.01
>>> measured("COc1ccc(-c2cc(=O)c3c(O)cc(O)cc3o2)cc1O")
0.975
>>> measured("CNC[C@H](O)c1cccc(O)c1")
1.01
>>> measured("CC1(C)O[C@@H]2CC3C4C[C@H](F)C5=CC(=O)CC[C@]5(C)C4[C@@H](O)C[C@]3(C)[C@]2(C(=O)CO)O1 (stereo partly drawn)")
1

Req: Look at this molecule and give its reported normalized growth. COc1cc(O)c2c(=O)cc(-c3ccc(OC)c(-c4c(O)cc(O)c5c(=O)cc(-c6ccc(O)cc6)oc45)c3)oc2c1
Resp: 0.978

Req: Input Oc1ccc2c3c1OC1[C@@H](O)CC[C@@]4(O)[C@@H](C2)N(CC2CCC2)CC[C@]314 (stereo partly drawn)
Resp: 1.02
